In this section, each of the compounds is paired with its reported PSMA Blkg % (1.0 μM).
Target: human PSMA (Homo sapiens (Human))
Test: Enzymatic assay for in vitro evaluation of PSMA inhibitors (fluorescent assay of PSMA activity, NAAG substrate, OPA detection of glutamate)
Type: biochemical
Details: 1.0 μM
Answer with a number only, understood to be in %.

Consider the following illustrative entries.
# compound, PSMA Blkg % (1.0 μM) (%)
rows = [
    ("O=C(O)CC[C@H](NC(=O)N[C@@H](Cc1ccc(Nc2nc(-c3ccc(-n4cc(CCCF)nn4)cc3)cs2)cc1)C(=O)O)C(=O)O [P240]", 94),
    ("O=C(O)CC[C@H](NC(=O)N[C@@H](CCCCNc1cc(OCc2cn(CCF)nn2)ccc1[N+](=O)[O-])C(=O)O)C(=O)O [P242]", 99),
    ("O=C(O)CC[C@H](NC(=O)N[C@@H](CCCCNc1cc(OCCOCCOCCn2cc(CCCF)nn2)ccc1[N+](=O)[O-])C(=O)O)C(=O)O [P251]", 100),
    ("O=C(O)CC[C@H](NC(=O)N[C@@H](Cc1ccc(NC(=O)c2ccc(F)cc2)cc1)C(=O)O)C(=O)O [P241]", 94),
    ("O=C(O)CC[C@H](NC(=O)N[C@@H](CCCCNC(=O)c1cc(C(=O)NCCCC[C@H](NC(=O)N[C@@H](CCC(=O)O)C(=O)O)C(=O)O)cc(-n2cc(CCCF)nn2)c1)C(=O)O)C(=O)O [P246]", 100),
]

Continue with the next compound.
## Input Could you share which PSMA Blkg % (1.0 μM) value was measured for O=C(O)CC[C@H](NC(=O)NC(CCCCNc1nc(NCCN(CCNC(=O)Cn2cc(CCCF)nn2)CCNc2ccc([N+](=O)[O-])c(NCCCCC(NC(=O)N[C@@H](CCC(=O)O)C(=O)O)C(=O)O)n2)ccc1[N+](=O)[O-])C(=O)O)C(=O)O (stereo partly drawn) [P273] ?
## Output 97

----------
Quick reference: PSMA Blkg % (10 μM) of the listed items.
Target: human PSMA (Homo sapiens (Human), UniProt Q04609)
Sequence (Q04609 whole entry): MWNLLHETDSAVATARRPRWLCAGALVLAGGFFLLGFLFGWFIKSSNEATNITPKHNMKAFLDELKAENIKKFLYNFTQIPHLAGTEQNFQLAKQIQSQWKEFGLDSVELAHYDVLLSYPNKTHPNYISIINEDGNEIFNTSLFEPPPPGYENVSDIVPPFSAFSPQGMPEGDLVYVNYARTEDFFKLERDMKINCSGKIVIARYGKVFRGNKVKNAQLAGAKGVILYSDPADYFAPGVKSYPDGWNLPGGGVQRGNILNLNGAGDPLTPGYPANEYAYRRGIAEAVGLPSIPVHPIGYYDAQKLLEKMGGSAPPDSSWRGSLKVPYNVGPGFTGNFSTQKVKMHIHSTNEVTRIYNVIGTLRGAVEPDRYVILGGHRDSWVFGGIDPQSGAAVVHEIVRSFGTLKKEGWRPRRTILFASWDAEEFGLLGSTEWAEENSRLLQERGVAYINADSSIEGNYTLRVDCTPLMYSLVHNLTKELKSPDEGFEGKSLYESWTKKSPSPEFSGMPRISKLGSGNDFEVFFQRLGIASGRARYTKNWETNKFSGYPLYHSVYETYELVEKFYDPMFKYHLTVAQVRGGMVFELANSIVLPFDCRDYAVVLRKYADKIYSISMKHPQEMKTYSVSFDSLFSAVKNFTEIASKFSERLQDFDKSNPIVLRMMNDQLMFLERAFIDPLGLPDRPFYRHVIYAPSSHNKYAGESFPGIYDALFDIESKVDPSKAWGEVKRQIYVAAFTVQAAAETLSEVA
Experiment: Enzymatic assay for in vitro evaluation of PSMA inhibitors (fluorescent assay of PSMA activity, NAAG substrate, OPA detection of glutamate)
Type: biochemical
Conditions: 10 μM
# value in %; strip the unit string

Record excerpt, results attached:
# compound, value-type, measured-value
measured = [
    ("O=C(O)CCC(CP(=O)(O)OC[C@@H]1CCCN1C(=O)Cc1ccccc1)C(=O)O (some centres unmarked) [P205]", "PSMA Blkg % (10 μM)", 79),
    ("O=C(O)CC[C@H](NC(=O)N[C@@H](Cc1ccc(OCCOCCOCCn2cc(CCCF)nn2)cc1)C(=O)O)C(=O)O [P203]", "PSMA Blkg % (10 μM)", 97),
    ("O=C(O)CC[C@H](NC(=O)N[C@@H](COCc1ccccc1)C(=O)O)C(=O)O [P204]", "PSMA Blkg % (10 μM)", 98),
    ("O=C(O)CCC(CP(=O)(O)OC[C@@H]1CCCN1C(=O)CCc1ccc(-n2cc(CCCF)nn2)cc1)C(=O)O (some centres unmarked) [P206]", "PSMA Blkg % (10 μM)", 81),
    ("O=C(O)CC[C@H](NC(=O)N[C@@H](Cc1ccc(OCCn2cc(CCCF)nn2)cc1)C(=O)O)C(=O)O [P195]", "PSMA Blkg % (10 μM)", 96),
    ("O=C(O)CC[C@H](NC(=O)C[C@@H](NC(=O)Cc1ccc(F)cc1)C(=O)O)C(=O)O [P210]", "PSMA Blkg % (10 μM)", 16),
    ("O=C(O)CCC(CP(=O)(O)NCCc1ccccc1)C(=O)O (centres unmarked) [P197]", "PSMA Blkg % (10 μM)", 22),
]

## Input May I ask what PSMA Blkg % (10 μM) has been recorded for O=C(O)CCC(CP(=O)(O)OC[C@@H]1CCCN1C(=O)CCCc1ccc(-n2cc(CCCF)nn2)cc1)C(=O)O (some centres unmarked) [P207] ?
## Output 96

----------
Molecular target: UniProt:Q04609
Test: Enzymatic assay for in vitro evaluation of PSMA inhibitors (fluorescent assay of PSMA activity, NAAG substrate, OPA detection of glutamate)
Format: biochemical
Conditions: 10 μM
The reader will find reported PSMA Blkg % (10 μM) values listed item by item below.

Example compounds with recorded PSMA Blkg % (10 μM):
# structure, measured-value
data = [
    ("O=C(O)CC[C@H](NC(=O)C[C@@H](NC(=O)CCCNC(=O)OCc1ccccc1)C(=O)O)C(=O)O", "75%"),
    ("O=C(O)CC[C@H](NC(=O)C[C@@H](NC(=O)CCCc1ccc(-n2cc(CCCF)nn2)cc1)C(=O)O)C(=O)O", "74%"),
    ("O=C(O)CC[C@H](NC(=O)N[C@@H](Cc1ccc(NC(=O)COCCOCCOCCn2cc(CCCF)nn2)cc1)C(=O)O)C(=O)O", "98%"),
]

# input for lookup
## Input Sample O=C(O)CC[C@H](NC(=O)C[C@@H](NC(=O)CCCCCNC(=O)OCc1ccccc1)C(=O)O)C(=O)O — what was its PSMA Blkg % (10 μM)?
## Output 44%

----------
Target: human PSMA (Homo sapiens (Human), UniProt Q04609)
Experiment: Enzymatic assay for in vitro evaluation of PSMA inhibitors (fluorescent assay of PSMA activity, NAAG substrate, OPA detection of glutamate)
Type: biochemical
Settings: compound at 10 μM
value-type: PSMA Blkg % (10 μM) (%)
The answer is to be given in %; state only the numeric part.

# molecule, tested-target, endpoint-unit, measured-value
rows = [
    ("C#Cc1ccc(C(=O)NCCCC[C@@H](C(=O)O)N(O)C(=O)N[C@@H](CCC(=O)O)C(=O)O)cc1 [P168]", "human PSMA (Homo sapiens (Human), UniProt Q04609)", "%", 98),
    ("CCC1(CC)C(=O)N([C@@H](CCCCNCc2ccc([N+](=O)[O-])cc2)C(=O)O)C(=O)N([C@@H](CCC(=O)O)C(=O)O)C1=O [P110]", "human PSMA (Homo sapiens (Human), UniProt Q04609)", "%", 8),
    ("CN(C(=O)N[C@@H](CCC(=O)O)C(=O)O)[C@@H](CCCCNC(=O)CCCCCn1cc(CCCF)nn1)C(=O)O [P080]", "human PSMA (Homo sapiens (Human), UniProt Q04609)", "%", 90),
]

## Input # PSMA Blkg % (10 μM) lookup, item O=C(O)/C=C/C(=O)N[C@@H](CCC(=O)O)C(=O)O [P165]
## Output 11

## Input Bench note: what PSMA Blkg % (10 μM) did O=C(O)CC[C@H](NC(=O)CN(O)C(=O)CCCNC(=O)Cn1cc(CCCF)nn1)C(=O)O [P142] show?
## Output 5

## Input Look at this molecule and give its reported PSMA Blkg % (10 μM). [N-]=[N+]=NCCCCC(=O)NS(=O)(=O)N[C@@H](CCC(=O)O)C(=O)O [P183]
## Output 36

## Input Fill in the blank: the reported PSMA Blkg % (10 μM) of CN(C(=O)N[C@@H](CCCCNC(=O)OCc1ccccc1)C(=O)O)[C@@H](CCC(=O)O)C(=O)O [P019] is ____.
## Output 97

## Input Looking for the measured PSMA Blkg % (10 μM) of O=C(O)CCC(C(=O)O)n1cc(COc2ccc3ccc(=O)oc3c2)nn1 (centres unmarked) [P109] , can you help?
## Output 24

----------
# human PSMA (Homo sapiens (Human)): Ki values follow
Report only the number, with the unit nM understood.

# compound, tested-target, Ki (nM)
rows = [
    ("O=C(O)CC[C@H](NC(=O)N[C@@H](CCCCNC(=O)c1ccc(F)cc1)C(=O)O)C(=O)O", "human PSMA (Homo sapiens (Human))", 3.1),
    ("O=C(O)CC[C@H](NC(=O)N[C@@H](Cc1ccc(NC(=O)Nc2ccc(-n3cc(CCCF)nn3)cc2)cc1)C(=O)O)C(=O)O", "human PSMA (Homo sapiens (Human))", 3.1),
    ("O=C(O)CCC(NC(=O)N[C@@H](CCCCNc1cc(OCC(COc2ccc([N+](=O)[O-])c(NCCCCC(NC(=O)N[C@@H](CCC(=O)O)C(=O)O)C(=O)O)c2)OCc2cn(CCF)nn2)ccc1[N+](=O)[O-])C(=O)O)C(=O)O (stereo in doubt)", "human PSMA (Homo sapiens (Human))", 0.4),
    ("O=C(O)CCC(NC(=O)NC(CC1CCN(C(=O)CCC(CCC(=O)N2CCC(C[C@H](NC(=O)NC(CCC(=O)O)C(=O)O)C(=O)O)CC2)NC(=O)c2ccc(-n3cc(CCCF)nn3)cc2)CC1)C(=O)O)C(=O)O (stereo in doubt)", "human PSMA (Homo sapiens (Human))", 0.7),
]

Now consider a different compound.
## Input Look up Ki: O=C(O)CCC(NC(=O)C[C@@H](NC(=O)CCNC(=O)c1cc(C(=O)NCCC(=O)N[C@H](CC(=O)NC(CCC(=O)O)C(=O)O)C(=O)O)cc(-n2cc(CCCF)nn2)c1)C(=O)O)C(=O)O (some centres unmarked)
## Output 94
